Below is a list of entries, each paired with its recorded Activity value.
TEST SYSTEM: Neuronal acetylcholine receptor; alpha4/beta2 (Homo sapiens, UniProt P17787+P43681)
METHOD NOTES: Maximal agonist activity on human alpha-4-beta-2 ACHR expressed in HEK293 cells assessed as change in intracellular calcium concentration by FLIPR relative to nicotine
Type: functional, cell-based

{"MOLECULE": "c1cncc(N2C[C@@H]3CCNC[C@@H]32)c1", "Activity / %": 105}
{"MOLECULE": "Cc1cc(N2CC[C@@H]3CN[C@@H]3C2)cnc1Cl", "Activity / %": 90}
{"MOLECULE": "COc1cc(N2CC[C@@H]3CN[C@@H]3C2)cnc1Br", "Activity / %": 40}
{"MOLECULE": "COc1ccc(N2CC[C@H]3CN[C@H]3C2)cn1", "Activity / %": 96}
{"MOLECULE": "Cc1cc(N2C[C@H]3CCNC[C@H]32)cnc1Cl", "Activity / %": 142}
{"MOLECULE": "c1cncc(N2CC[C@H]3CN[C@H]3C2)c1", "Activity / %": 171}
{"MOLECULE": "Brc1cncc(N2CC[C@@H]3CN[C@@H]3C2)c1 (single isomer, unassigned)", "Activity / %": 58}
{"MOLECULE": "COc1ccc(N2CC[C@@H]3CN[C@@H]3C2)cn1", "Activity / %": 54}
{"MOLECULE": "c1ncc(N2CC[C@H]3CN[C@H]3C2)cn1", "Activity / %": 181}
{"MOLECULE": "O=[N+]([O-])c1ccc(N2CC[C@@H]3CN[C@@H]3C2)cn1", "Activity / %": 114}
{"MOLECULE": "O=[N+]([O-])c1ccc(N2CC[C@H]3CN[C@H]3C2)cn1", "Activity / %": 196}
{"MOLECULE": "Clc1ccc(N2CC[C@@H]3CN[C@@H]3C2)nn1", "Activity / %": 129}

###

TEST SYSTEM: Neuronal acetylcholine receptor; alpha3/beta4 (Homo sapiens, UniProt P30926+P32297)
METHOD NOTES: Maximal agonist activity at human alpha-3-beta-4 ACHR expressed in HEK293 cells assessed as change in intracellular calcium concentration by FLIPR relative to nicotine
Format: functional, cell-based
Below is a list of entries, each paired with its recorded Activity value.
PARAMETER MEASURED: Activity

{"SMILES REPRESENTATION": "N#Cc1cc(N2CC[C@H]3CN[C@H]3C2)cnc1Br", "TEST SYSTEM": "Neuronal acetylcholine receptor; alpha3/beta4 (Homo sapiens, UniProt P30926+P32297)", "PARAMETER MEASURED": "Activity", "MEASUREMENT": "133%"}
{"SMILES REPRESENTATION": "N#Cc1cncc(N2C[C@H]3CCNC[C@H]32)c1", "TEST SYSTEM": "Neuronal acetylcholine receptor; alpha3/beta4 (Homo sapiens, UniProt P30926+P32297)", "PARAMETER MEASURED": "Activity", "MEASUREMENT": "71%"}
{"SMILES REPRESENTATION": "c1cncc(N2CC[C@@H]3CN[C@@H]3C2)c1", "TEST SYSTEM": "Neuronal acetylcholine receptor; alpha3/beta4 (Homo sapiens, UniProt P30926+P32297)", "PARAMETER MEASURED": "Activity", "MEASUREMENT": "118%"}
